target: human dopamine transporter (hDAT) (Homo sapiens)
Sequence (Q01959 whole entry): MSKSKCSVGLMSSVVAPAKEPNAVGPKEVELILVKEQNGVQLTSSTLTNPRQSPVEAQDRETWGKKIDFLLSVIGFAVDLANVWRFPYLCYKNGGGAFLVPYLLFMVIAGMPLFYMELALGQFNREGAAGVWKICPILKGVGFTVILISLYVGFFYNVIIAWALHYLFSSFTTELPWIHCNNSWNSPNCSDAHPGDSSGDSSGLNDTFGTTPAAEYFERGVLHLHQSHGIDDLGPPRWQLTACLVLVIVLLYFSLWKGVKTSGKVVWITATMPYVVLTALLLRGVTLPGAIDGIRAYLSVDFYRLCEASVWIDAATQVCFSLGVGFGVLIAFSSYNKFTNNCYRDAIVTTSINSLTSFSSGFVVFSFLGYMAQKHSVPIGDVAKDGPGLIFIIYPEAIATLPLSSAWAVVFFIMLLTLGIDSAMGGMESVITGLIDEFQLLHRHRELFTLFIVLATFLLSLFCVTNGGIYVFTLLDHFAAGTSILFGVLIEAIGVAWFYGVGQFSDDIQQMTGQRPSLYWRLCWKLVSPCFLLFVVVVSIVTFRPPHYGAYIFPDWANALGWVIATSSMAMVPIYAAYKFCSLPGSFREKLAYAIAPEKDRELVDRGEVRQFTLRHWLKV
pKi: −log10 of the molar value.
Outcome Measure: pKi

`CNCc1ccccc1Cc1ccc2[nH]c(C(N)=O)cc2c1` tested on human dopamine transporter (hDAT) (Homo sapiens) gave pKi: ~8.30
